Hi there, I'd appreciate the recorded MIC for every entry that follows.
System: Staphylococcus aureus 447
assay_protocol: broth micro-dilution MIC
Assay type: cell-based
All answers are understood in µg/mL, so give the number only.

IN: Sample CNC(CC(C)C)C(=O)NC1C(=O)NC(CC(N)=O)C(=O)NC2C(=O)NC3C(=O)NC(C(=O)NC(C(=O)O)c4cc(O)cc(O)c4-c4cc3ccc4O)C(OC3CC(C)(N)C(O)C(C)O3)c3ccc(c(Cl)c3)Oc3cc2cc(c3OC2OC(CO)C(O)C(O)C2OC2CC(C)(NCCCCCCCCOc3ccc(Oc4ccccc4)cc3)C(O)C(C)O2)Oc2ccc(cc2Cl)C1O (centres unmarked) — what was its MIC?
OUT: 8

IN: Query CNC(CC(C)C)C(=O)NC1C(=O)NC(CC(N)=O)C(=O)NC2C(=O)NC3C(=O)NC(C(=O)NC(C(=O)O)c4cc(O)cc(O)c4-c4cc3ccc4O)C(OC3CC(C)(N)C(O)C(C)O3)c3ccc(c(Cl)c3)Oc3cc2cc(c3OC2OC(CO)C(O)C(O)C2OC2CC(C)(NCc3ccc4c(c3)Cc3ccccc3-4)C(O)C(C)O2)Oc2ccc(cc2Cl)C1O (centres unmarked) next
OUT: 0.5

IN: Quick one: CC(C)CC(C(=O)NC1C(=O)NC(CC(N)=O)C(=O)NC2C(=O)NC3C(=O)NC(C(=O)NC(C(=O)O)c4cc(O)cc(O)c4-c4cc3ccc4O)C(OC3CC(C)(N)C(O)C(C)O3)c3ccc(c(Cl)c3)Oc3cc2cc(c3OC2OC(CO)C(O)C(O)C2OC2CC(C)(NCc3ccc(Oc4ccc([N+](=O)[O-])cc4)cc3)C(O)C(C)O2)Oc2ccc(cc2Cl)C1O)N(C)Cc1ccc(Oc2ccc([N+](=O)[O-])cc2)cc1 (centres unmarked)
OUT: 0.5

IN: Moving on to the next molecule: CNC(CC(C)C)C(=O)NC1C(=O)NC(CC(N)=O)C(=O)NC2C(=O)NC3C(=O)NC(C(=O)NC(C(=O)O)c4cc(O)cc(O)c4-c4cc3ccc4O)C(OC3CC(C)(N)C(O)C(C)O3)c3ccc(c(Cl)c3)Oc3cc2cc(c3OC2OC(CO)C(O)C(O)C2OC2CC(C)(NCc3cc(C)cs3)C(O)C(C)O2)Oc2ccc(cc2Cl)C1O (centres unmarked)
OUT: 1

IN: Can you check CNC(CC(C)C)C(=O)NC1C(=O)NC(CC(N)=O)C(=O)NC2C(=O)NC3C(=O)NC(C(=O)NC(C(=O)O)c4cc(O)cc(O)c4-c4cc3ccc4O)C(OC3CC(C)(N)C(O)C(C)O3)c3ccc(c(Cl)c3)Oc3cc2cc(c3OC2OC(CO)C(O)C(O)C2OC2CC(C)(NCc3ccc(Oc4ccccc4)cc3)C(O)C(C)O2)Oc2ccc(cc2Cl)C1O (centres unmarked) [Compound 4, p-phenoxybenzyl·A82846B] next?
OUT: 0.25

IN: Can you check CNC(CC(C)C)C(=O)NC1C(=O)NC(CC(N)=O)C(=O)NC2C(=O)NC3C(=O)NC(C(=O)NC(C(=O)O)c4cc(O)cc(O)c4-c4cc3ccc4O)C(OC3CC(C)(NCc4ccc(C(F)(F)F)cc4)C(O)C(C)O3)c3ccc(c(Cl)c3)Oc3cc2cc(c3OC2OC(CO)C(O)C(O)C2OC2CC(C)(NCc3ccc(C(F)(F)F)cc3)C(O)C(C)O2)Oc2ccc(cc2Cl)C1O (centres unmarked) next?
OUT: 0.25

IN: Please do the same for CC(C)CC(C(=O)NC1C(=O)NC(CC(N)=O)C(=O)NC2C(=O)NC3C(=O)NC(C(=O)NC(C(=O)O)c4cc(O)cc(O)c4-c4cc3ccc4O)C(OC3CC(C)(N)C(O)C(C)O3)c3ccc(c(Cl)c3)Oc3cc2cc(c3OC2OC(CO)C(O)C(O)C2OC2CC(C)(NCc3cc4ccccc4s3)C(O)C(C)O2)Oc2ccc(cc2Cl)C1O)N(C)Cc1cc2ccccc2s1 (centres unmarked) as well.
OUT: 4

IN: What do you get for CC(C)CC(C(=O)NC1C(=O)NC(CC(N)=O)C(=O)NC2C(=O)NC3C(=O)NC(C(=O)NC(C(=O)O)c4cc(O)cc(O)c4-c4cc3ccc4O)C(OC3CC(C)(N)C(O)C(C)O3)c3ccc(c(Cl)c3)Oc3cc2cc(c3OC2OC(CO)C(O)C(O)C2OC2CC(C)(NCc3cccc(Oc4ccccc4)c3)C(O)C(C)O2)Oc2ccc(cc2Cl)C1O)N(C)Cc1cccc(Oc2ccccc2)c1 (centres unmarked) ?
OUT: 2

IN: Another: CC(C)CC(C(=O)NC1C(=O)NC(CC(N)=O)C(=O)NC2C(=O)NC3C(=O)NC(C(=O)NC(C(=O)O)c4cc(O)cc(O)c4-c4cc3ccc4O)C(OC3CC(C)(N)C(O)C(C)O3)c3ccc(c(Cl)c3)Oc3cc2cc(c3OC2OC(CO)C(O)C(O)C2OC2CC(C)(NCc3ccc(-c4ccccc4)cc3)C(O)C(C)O2)Oc2ccc(cc2Cl)C1O)N(C)Cc1ccc(-c2ccccc2)cc1 (centres unmarked)
OUT: 0.125

IN: Repeat for the following molecule: CCOc1cc(CNC2(C)CC(OC3C(Oc4c5cc6cc4Oc4ccc(cc4Cl)C(OC4CC(C)(N)C(O)C(C)O4)C4NC(=O)C(NC(=O)C6NC(=O)C(CC(N)=O)NC(=O)C(NC(=O)C(CC(C)C)NC)C(O)c6ccc(c(Cl)c6)O5)c5ccc(O)c(c5)-c5c(O)cc(O)cc5C(C(=O)O)NC4=O)OC(CO)C(O)C3O)OC(C)C2O)ccc1OCC1CCCCC1 (centres unmarked)
OUT: 0.5
